biological target: human CB1 receptor (Homo sapiens, UniProt P21554); construct: expressed in transfected cells; host or cells: HEK293; assay: bioSensAll GAPL-Gi2 BRET biosensor assay in HEK293 cells transfected with hCB1; test compound added before EC75-80 of agonist CP55,940 (0.1 nM); format: cell-based; settings: vs CP55,940 0.1 nM (EC75-80), read-out: CB1 wt Gi2 IC50
Sequence (P21554 whole entry): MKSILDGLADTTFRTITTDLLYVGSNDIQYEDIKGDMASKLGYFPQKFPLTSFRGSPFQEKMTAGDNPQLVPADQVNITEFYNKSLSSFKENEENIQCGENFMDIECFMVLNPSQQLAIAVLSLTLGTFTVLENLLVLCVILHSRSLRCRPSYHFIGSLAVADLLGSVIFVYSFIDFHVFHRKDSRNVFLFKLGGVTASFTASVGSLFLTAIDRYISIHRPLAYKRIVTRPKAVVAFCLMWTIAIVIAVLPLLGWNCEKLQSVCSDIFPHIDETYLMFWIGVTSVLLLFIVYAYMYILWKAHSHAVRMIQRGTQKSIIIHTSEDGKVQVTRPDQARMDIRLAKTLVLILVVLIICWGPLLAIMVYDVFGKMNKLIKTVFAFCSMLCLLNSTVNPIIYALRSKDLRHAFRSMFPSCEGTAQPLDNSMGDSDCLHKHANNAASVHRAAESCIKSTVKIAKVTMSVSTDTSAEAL
Measured IC50 by item
Respond numerically; units are nM and should not be typed.

Determine from records and report IC50 for CC(C)(O)COc1nc(N2CC(C)(C(N)=O)C2)c2nc(-c3ccc(C#N)nc3)n(-c3ccc(Cl)cc3)c2n1
34.1

====

target: human CB1 receptor (Homo sapiens); construct: expressed in transfected cells; host or cells: HEK293; experiment: bioSensAll β-arrestin2 plasma membrane translocation (+GRK2) BRET biosensor assay in HEK293 cells transfected with hCB1; test compound added before EC75-80 of agonist CP55,940 (100 nM); assay type: cell-based; conditions: βArrestin2 (+GRK2) BRET biosensor, vs CP55,940 100 nM (EC75-80), read-out: CB1 wt βarr2 IC50
METRIC: IC50 (nM)
Respond numerically; units are nM and should not be typed.

Worked cases, answers included:
[[record]]
query_smiles = "CC(=O)NC1(C)CCN(c2nc(OCC(C)(C)O)nc3c2nc(-c2ccccc2Cl)n3-c2ccc(Cl)cc2)CC1"
observed_measurement = 2.31

[[record]]
query_smiles = "CC(C)Oc1nc(OC(C)C)c2nc(-c3ccccc3Cl)n(-c3ccc(Cl)cc3)c2n1"
observed_measurement = 54.6


Turning now to a further compound:
Determine from records and report IC50 for CN(CCO)c1nc(N2CCC(C)(O)CC2)c2nc(-c3ccccc3Cl)n(-c3ccc(Cl)cc3)c2n1
0.592

====

target: human CB1 receptor (Homo sapiens); construct: expressed in transfected cells; host or cells: HEK293; test: bioSensAll β-arrestin2 plasma membrane translocation (+GRK2) BRET biosensor assay in HEK293 cells transfected with hCB1; test compound added before EC75-80 of agonist CP55,940 (100 nM); assay type: cell-based; details: βArrestin2 (+GRK2) BRET biosensor, vs CP55,940 100 nM (EC75-80), read-out: CB1 wt βarr2 IC50
Measured IC50 by item
Respond numerically; units are nM and should not be typed.

[[record]]
query_smiles = "COC1(C)CN(c2nc(N(C)CCO)nc3c2nc(-c2ccccc2Cl)n3-c2ccc(Cl)cc2)C1"
metric = "IC50"
units_symbol = "nM"
observed_measurement = 1.18


Determine from records and report IC50 for CCOC1(C(N)=O)CCN(c2nc(N3CCC[C@H]3CO)nc3c2nc(-c2ccccc2Cl)n3-c2ccc(Cl)cc2)CC1
1.88

====

target: human CB1 receptor (Homo sapiens); construct: expressed in transfected cells; host or cells: HEK293; experiment: bioSensAll GAPL-Gi2 BRET biosensor assay in HEK293 cells transfected with hCB1; test compound added before EC75-80 of agonist CP55,940 (0.1 nM); format: cell-based; settings: vs CP55,940 0.1 nM (EC75-80), read-out: CB1 wt Gi2 IC50
Measured IC50 by item
Respond numerically; units are nM and should not be typed.

[[record]]
query_smiles = "Cc1ccn(-c2nc(N3CCC(C(F)(F)F)CC3)c3nc(-c4ccccc4Cl)n(-c4ccc(Cl)cc4)c3n2)n1"
observed_measurement = 1.33


Determine from records and report IC50 for C[C@@H](CO)N(C)c1nc(N2CCC(C)(C(N)=O)CC2)c2nc(-c3ccccc3Cl)n(-c3ccc(Cl)cc3)c2n1
0.586

Determine from records and report IC50 for CC1(C(N)=O)CCN(c2nc(N3CC[C@@H](O)C3)nc3c2nc(-c2ccc(C#N)nc2)n3-c2ccc(Cl)cc2)CC1
0.713

Determine from records and report IC50 for CCNC1(C(N)=O)CCN(c2nc(NCCO)nc3c2nc(-c2ccccc2Cl)n3-c2ccc(Cl)cc2)CC1
0.982

Determine from records and report IC50 for CN(CCO)c1nc(N2CCO[C@H](CO)C2)c2nc(-c3ccccc3Cl)n(-c3ccc(Cl)cc3)c2n1
0.597

Determine from records and report IC50 for CN(CCO)c1nc(N2CCC(C(F)(F)F)CC2)c2nc(-c3ccccc3Cl)n(-c3ccc(Cl)cc3)c2n1
0.95

====

target: human CB1 receptor (Homo sapiens, UniProt P21554); construct: expressed in transfected cells; host or cells: HEK293; assay: bioSensAll GAPL-Gi2 BRET biosensor assay in HEK293 cells transfected with hCB1; test compound added before EC75-80 of agonist CP55,940 (0.1 nM); format: cell-based; conditions: vs CP55,940 0.1 nM (EC75-80), read-out: CB1 wt Gi2 IC50
IC50 vs 5 nM: less than gives Criterion met; not less than gives Criterion not met.

Determine whether this compound shows IC50 lower than 5 nM (ties excluded): CC(C)(O)COc1nc(N2CC(C)(C#N)C2)c2nc(-c3ccc(C#N)nc3)n(-c3ccc(Cl)cc3)c2n1
Criterion not met

Determine whether this compound shows IC50 lower than 5 nM (ties excluded): CC(C)(O)COc1nc(N2CCC(C)(C(N)=O)CC2)c2nc(-c3ccc(C#N)nc3)n(-c3ccc(Cl)cc3)c2n1
Criterion not met

Determine whether this compound shows IC50 lower than 5 nM (ties excluded): CC1(C(N)=O)CCN(c2nc(N3CCC[C@H]3CO)nc3c2nc(-c2ccc(C#N)nc2)n3-c2ccc(Cl)cc2)CC1
Criterion met

====

biological target: human CB1 receptor (Homo sapiens); construct: expressed in transfected cells; host or cells: HEK293; experiment: bioSensAll β-arrestin2 plasma membrane translocation (+GRK2) BRET biosensor assay in HEK293 cells transfected with hCB1; test compound added before EC75-80 of agonist CP55,940 (100 nM); format: cell-based; settings: βArrestin2 (+GRK2) BRET biosensor, vs CP55,940 100 nM (EC75-80), read-out: CB1 wt βarr2 IC50
METRIC: pIC50
Note on pIC50: it is the negative log10 of concentration, concentration in mol/L.

Determine from records and report pIC50 for C[C@H](O)CNc1nc(N2CCC(C)(C(N)=O)CC2)c2nc(-c3ccccc3Cl)n(-c3ccc(Cl)cc3)c2n1 [Compound 84]
7.93

Determine from records and report pIC50 for CS(=O)(=O)CCNc1nc(N2CCC(C(F)(F)F)CC2)c2nc(-c3ccccc3Cl)n(-c3ccc(Cl)cc3)c2n1 [Compound 28]
7.91

Determine from records and report pIC50 for CN(CCO)c1nc(NC2CCOCC2)c2nc(-c3ccccc3Cl)n(-c3ccc(Cl)cc3)c2n1 [Compound 178]
8.39

Determine from records and report pIC50 for CC1(C(N)=O)CCN(c2nc(N3CCC[C@H]3CO)nc3c2nc(-c2ccc(C#N)nc2)n3-c2ccc(Cl)cc2)CC1 [Compound 130]
8.92

Determine from records and report pIC50 for CC1(C(N)=O)CCN(c2nc(-n3ccnc3CO)nc3c2nc(-c2ccccc2Cl)n3-c2ccc(Cl)cc2)CC1 [Compound 43]
8.28

Determine from records and report pIC50 for CN1CCN(c2nc(N(C)CCO)nc3c2nc(-c2ccccc2Cl)n3-c2ccc(Cl)cc2)CC1 [Compound 168]
7.92

Determine from records and report pIC50 for C[C@@H](O)COc1nc(N2CCC(C)(C(N)=O)CC2)c2nc(-c3ccccc3Cl)n(-c3ccc(Cl)cc3)c2n1 [Compound 79]
8.36

Determine from records and report pIC50 for CC1(C(N)=O)CCN(c2nc(-n3cnc(CO)c3)nc3c2nc(-c2ccccc2Cl)n3-c2ccc(Cl)cc2)CC1 [Compound 46]
8.02

====

molecular target: human CB1 receptor (Homo sapiens); construct: expressed in transfected cells; host or cells: HEK293; assay: bioSensAll GAPL-Gi2 BRET biosensor assay in HEK293 cells transfected with hCB1; test compound added before EC75-80 of agonist CP55,940 (0.1 nM); format: cell-based; details: vs CP55,940 0.1 nM (EC75-80), read-out: CB1 wt Gi2 IC50
METRIC: pIC50
Note on pIC50: it is the negative log10 of concentration, concentration in mol/L.

Worked cases, answers included:
[[record]]
compound = "CC(C)Oc1nc(N(C)CCO)nc2c1nc(-c1ccccc1Cl)n2-c1ccc(Cl)cc1 [Compound 189]"
metric = "pIC50"
observed_measurement = 9.38

[[record]]
compound = "CN(CC(C)(C)O)c1nc(N2CC(C(N)=O)C2)c2nc(-c3ccccc3Cl)n(-c3ccc(Cl)cc3)c2n1 [Compound 128]"
metric = "pIC50"
observed_measurement = 8.02

[[record]]
compound = "CCOc1nc(OCC(C)(C)O)nc2c1nc(-c1ccccc1Cl)n2-c1ccc(Cl)cc1 [Compound 99]"
metric = "pIC50"
observed_measurement = 8.35


Turning now to a further compound:
Determine from records and report pIC50 for Cc1cnn(-c2nc(N3CCC(C(F)(F)F)CC3)c3nc(-c4ccccc4Cl)n(-c4ccc(Cl)cc4)c3n2)c1 [Compound 21]
8.36
